Origin of values: the RNAGym collection of RNA variant scans (doi:10.1093/nar/gkz1192)

B1: CPEB3 Ribozyme (parent)
chain: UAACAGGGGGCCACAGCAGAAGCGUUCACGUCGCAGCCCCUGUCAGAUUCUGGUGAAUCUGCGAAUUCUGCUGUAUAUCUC

Variants of: B1
Assay: self-cleavage, relative activity (ratio to wild type); higher = more cleavage; in vitro, sequencing
self-cleavage for assorted variants
Number only, no unit.

- SEQUENCE_ENTRY: "UAACAGGGGGCCACAGCAGAAGCGUUCACGUCGCAGCCCCUGUCAGAUUCUGGUGAAUCCGCGAAUUCUGCUGUAUAUAUC [U60C C79A]"
  self-cleavage: 0.93
- SEQUENCE_ENTRY: "UAACGGGGGGCCACAGCAGAAGGGUUCACGUCGCAGCCCCUGUCAGAUUCUGGUGAAUCUGCGAAUUCUGCUGUAUAUCUC [A5G C23G]"
  self-cleavage: 0.61
- SEQUENCE_ENTRY: "UAACAGGGGGCCACAGCAGAAGCGUUCACGUCGCAGCCCCUGUCAGAUUCUGGUAGAUCUGCGAAUUCUGCUGUAUAUCUC [G55A A56G]"
  self-cleavage: 0.8
- SEQUENCE_ENTRY: "UAACAGGGGGCCACAGCAGAAGCGUUCACGUCACAGCCCCUGUCAGAUUCUGGUGAAUCUGCGAAUUCUGCUGUUUAUCUC [G33A A75U]"
  self-cleavage: 0.11
- SEQUENCE_ENTRY: "UAACAGGGGUCCACAGCAGAAGCGUUCACGUCGCAGCCCCUGUCAGAUUCUGGUGAAUCGGCGAAUUCUGCUGUAUAUCUC [G10U U60G]"
  self-cleavage: 0.31

## Input Give the measured self-cleavage of UAACAGGGGGCCACAGCAGAGGCGUUCGCGUCGCAGCCCCUGUCAGAUUCUGGUGAAUCUGCGAAUUCUGCUGUAUAUCUC [A21G A28G] .
## Output 0.35

## Input Give the measured self-cleavage of UAACAGGGGGCCACAGCAGAAGCGUUCACGUCGCAGCCCCUGUCAGAUUCUGGUGAAUCUGCGAAUUCAGCUGUCUAUCUC [U69A A75C] .
## Output 0.55

## Input Give the measured self-cleavage of UAACAGGGGGCCACAGCAGAAGCGCUCACGUCGCAGCCCCUGUCAGAUUCUGGUGAAUCUGCGAAUUCUGCUGUCUAUCUC [U25C A75C] .
## Output 0.35
